Below, each of the proteins is paired with its reported kcat value.
Substrate: O=[N+]([O-])c1ccc2c(c1)OCO2
Assay Notes: purified protein
Assay type: biochemical, Thermothelomyces thermophilus
Test Conditions: H2O2 as saturating co-substrate; 20 nM enzyme; standard deviation <18%
Lab book: enter the figure in s⁻¹, no units written.

See these solved cases before continuing.
Inquiry: Give me measured kcat, please, for this protein: MthUPO (Thermothelomyces thermophilus ATCC 42464; F170A/F75Q/L76M/S175G) (protein, secreted from S. cerevisiae, purified; 245 AA plus C-terminal TwinStrep-GFP11 tag; heme-thiolate) AGFDTWSPPGPYDVRAPCPMLNTLANHGFLPHDGKDITREQTENALFEALHINKTLASQMFDFALTTNPKNTSTFSLNDLGNHNILEHDASLSRADAYFGNVLQFNQTVFDETKTYWEGDTIDLRMAAKARLGRIKTSQATNPTYSMSELGDAATYGEGAAYVVVLGDKESRTVKRSWVEWFFEHEQLPQHLGWKRPAASFEEEDLNSSMEEIEKYTKELEGSNSTSGSQKHRRRLPRRRAHFGF
Reply text: 59.4

Inquiry: Tell me its kcat given MthUPO (Thermothelomyces thermophilus ATCC 42464; F75Q/L76F/S175G) (protein, secreted from S. cerevisiae, purified; 245 AA plus C-terminal TwinStrep-GFP11 tag; heme-thiolate) AGFDTWSPPGPYDVRAPCPMLNTLANHGFLPHDGKDITREQTENALFEALHINKTLASQFFDFALTTNPKNTSTFSLNDLGNHNILEHDASLSRADAYFGNVLQFNQTVFDETKTYWEGDTIDLRMAAKARLGRIKTSQATNPTYSMSELGDAFTYGEGAAYVVVLGDKESRTVKRSWVEWFFEHEQLPQHLGWKRPAASFEEEDLNSSMEEIEKYTKELEGSNSTSGSQKHRRRLPRRRAHFGF as the entry.
Reply text: 47

Inquiry: Return kcat for the following protein: MthUPO (Thermothelomyces thermophilus ATCC 42464; A177F/L76F/S175G) (protein, secreted from S. cerevisiae, purified; 245 AA plus C-terminal TwinStrep-GFP11 tag; heme-thiolate) AGFDTWSPPGPYDVRAPCPMLNTLANHGFLPHDGKDITREQTENALFEALHINKTLASFFFDFALTTNPKNTSTFSLNDLGNHNILEHDASLSRADAYFGNVLQFNQTVFDETKTYWEGDTIDLRMAAKARLGRIKTSQATNPTYSMSELGDAFTYGEGAFYVVVLGDKESRTVKRSWVEWFFEHEQLPQHLGWKRPAASFEEEDLNSSMEEIEKYTKELEGSNSTSGSQKHRRRLPRRRAHFGF
Reply text: 132

***
Inquiry: Look up and state reported kcat for MthUPO (Thermothelomyces thermophilus ATCC 42464) (protein, secreted from S. cerevisiae, purified; 245 AA plus C-terminal TwinStrep-GFP11 tag; heme-thiolate) AGFDTWSPPGPYDVRAPCPMLNTLANHGFLPHDGKDITREQTENALFEALHINKTLASFLFDFALTTNPKNTSTFSLNDLGNHNILEHDASLSRADAYFGNVLQFNQTVFDETKTYWEGDTIDLRMAAKARLGRIKTSQATNPTYSMSELGDAFTYGESAAYVVVLGDKESRTVKRSWVEWFFEHEQLPQHLGWKRPAASFEEEDLNSSMEEIEKYTKELEGSNSTSGSQKHRRRLPRRRAHFGF
Reply text: 7.1
